- targetOrSystem: panel of 255 wild-type kinases (Homo sapiens, UniProt Q9H1R3)
- Sequence (Q9H1R3 whole entry): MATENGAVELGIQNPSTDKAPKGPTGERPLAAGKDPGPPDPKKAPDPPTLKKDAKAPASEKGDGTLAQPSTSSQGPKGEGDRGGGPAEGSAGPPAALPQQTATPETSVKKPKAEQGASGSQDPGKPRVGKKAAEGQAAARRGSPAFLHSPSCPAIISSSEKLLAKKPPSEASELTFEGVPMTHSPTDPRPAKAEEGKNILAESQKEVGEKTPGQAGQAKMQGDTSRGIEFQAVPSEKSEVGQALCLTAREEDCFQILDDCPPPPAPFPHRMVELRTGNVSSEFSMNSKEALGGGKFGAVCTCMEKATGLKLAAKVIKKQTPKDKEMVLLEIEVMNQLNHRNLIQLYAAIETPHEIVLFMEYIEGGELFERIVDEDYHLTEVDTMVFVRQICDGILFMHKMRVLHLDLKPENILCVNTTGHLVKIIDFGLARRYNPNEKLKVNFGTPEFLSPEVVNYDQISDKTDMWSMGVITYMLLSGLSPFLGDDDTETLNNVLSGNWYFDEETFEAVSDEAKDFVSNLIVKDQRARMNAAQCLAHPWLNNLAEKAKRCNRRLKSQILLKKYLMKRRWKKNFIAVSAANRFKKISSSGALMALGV
- assayRemarks: Kinase panel profiling at 1 µmol/L (MSA or IMAP), percentage inhibition
- Type: biochemical
- conditionContext: kinase skMLCK; 1 µmol/L single concentration; read-out: %-inhibition at 1 µmol/L, skMLCK
In this section, each of the molecules is paired with its reported inhibition at 1 µM.
outcomeMeasure: inhibition at 1 µM (%)

molecule="COc1ccc(CN2C3CC2CN(c2ccc(-c4cc(OCC(C)(C)O)cn5ncc(C#N)c45)cn2)C3)cn1 [selpercatinib]" outcomemeasure="inhibition at 1 µM" measuredvalue=-0.264
molecule="Cn1cc(-c2cc3c(N4CCN(c5ncc([C@@](C)(N)c6ccc(F)cc6)cn5)CC4)ncnn3c2)cn1 [avapritinib]" outcomemeasure="inhibition at 1 µM" measuredvalue=1.29
molecule="Cc1cc(Nc2ncnc3ccc(NC4=NC(C)(C)CO4)cc23)ccc1Oc1ccn2ncnc2c1 [tucatinib]" outcomemeasure="inhibition at 1 µM" measuredvalue=-1.5

---

- targetOrSystem: panel of 255 wild-type kinases (Homo sapiens, UniProt Q9P286)
- Sequence (Q9P286 whole entry): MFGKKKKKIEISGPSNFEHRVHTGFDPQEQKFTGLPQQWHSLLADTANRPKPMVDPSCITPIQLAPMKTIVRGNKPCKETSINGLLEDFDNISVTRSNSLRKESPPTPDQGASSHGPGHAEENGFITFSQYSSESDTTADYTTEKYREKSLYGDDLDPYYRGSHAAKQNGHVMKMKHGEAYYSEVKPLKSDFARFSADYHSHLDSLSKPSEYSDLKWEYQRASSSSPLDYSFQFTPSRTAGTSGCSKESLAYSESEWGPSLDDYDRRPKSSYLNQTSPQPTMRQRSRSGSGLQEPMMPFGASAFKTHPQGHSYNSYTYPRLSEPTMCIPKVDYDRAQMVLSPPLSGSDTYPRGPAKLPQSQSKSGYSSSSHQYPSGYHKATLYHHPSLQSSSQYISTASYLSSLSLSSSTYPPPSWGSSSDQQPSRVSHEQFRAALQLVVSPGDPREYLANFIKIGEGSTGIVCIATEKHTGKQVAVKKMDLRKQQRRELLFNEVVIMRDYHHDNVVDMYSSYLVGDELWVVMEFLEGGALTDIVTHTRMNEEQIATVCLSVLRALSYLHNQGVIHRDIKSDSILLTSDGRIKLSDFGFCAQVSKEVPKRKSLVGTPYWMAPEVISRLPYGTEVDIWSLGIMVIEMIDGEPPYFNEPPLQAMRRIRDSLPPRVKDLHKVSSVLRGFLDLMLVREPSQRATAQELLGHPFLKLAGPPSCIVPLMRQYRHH
- assayRemarks: Kinase panel profiling at 1 µmol/L (MSA or IMAP), percentage inhibition
- Assay type: biochemical
- conditionContext: PAK5; 1 µmol/L single concentration; read-out: %-inhibition, PAK5
In this section, each of the compounds is paired with its reported inhibition at 1 µM.
outcomeMeasure: inhibition at 1 µM (%)

smilesdata=CN1CCN(c2ccc(C(=O)Nc3n[nH]c4ccc(Cc5cc(F)cc(F)c5)cc34)c(NC3CCOCC3)c2)CC1 targetorsystem="panel of 255 wild-type kinases (Homo sapiens, UniProt Q9P286)" outcomemeasure="inhibition at 1 µM" measuredvalue=25
smilesdata=O=C(Nc1cnn2ccc(N3CCC[C@@H]3c3cc(F)ccc3F)nc12)N1CC[C@H](O)C1 targetorsystem="panel of 255 wild-type kinases (Homo sapiens, UniProt Q9P286)" outcomemeasure="inhibition at 1 µM" measuredvalue=-0.213
smilesdata=CCN1C(=O)N(c2c(F)c(OC)cc(OC)c2F)Cc2cnc3[nH]c(CN4CCOCC4)cc3c21 targetorsystem="panel of 255 wild-type kinases (Homo sapiens, UniProt Q9P286)" outcomemeasure="inhibition at 1 µM" measuredvalue=2.26
smilesdata=Cn1cc(-c2cc3c(N4CCN(c5ncc([C@@](C)(N)c6ccc(F)cc6)cn5)CC4)ncnn3c2)cn1 targetorsystem="panel of 255 wild-type kinases (Homo sapiens, UniProt Q9P286)" outcomemeasure="inhibition at 1 µM" measuredvalue=4.51
smilesdata=CO[C@]1(C(=O)N[C@@H](C)c2ccc(-n3cc(F)cn3)nc2)CC[C@H](c2nc(C)cc(Nc3cc(C)[nH]n3)n2)CC1 targetorsystem="panel of 255 wild-type kinases (Homo sapiens, UniProt Q9P286)" outcomemeasure="inhibition at 1 µM" measuredvalue=69
smilesdata=CCc1nc(C(N)=O)c(Nc2ccc(N3CCC(N4CCN(C)CC4)CC3)c(OC)c2)nc1NC1CCOCC1 targetorsystem="panel of 255 wild-type kinases (Homo sapiens, UniProt Q9P286)" outcomemeasure="inhibition at 1 µM" measuredvalue=92
smilesdata=C[C@H]1Oc2cc(cnc2N)-c2c(nn(C)c2C#N)CN(C)C(=O)c2ccc(F)cc21 targetorsystem="panel of 255 wild-type kinases (Homo sapiens, UniProt Q9P286)" outcomemeasure="inhibition at 1 µM" measuredvalue=11

---

In this section, each of the compounds is paired with its reported pIC50.
- targetOrSystem: UniProt:P21802
- Sequence (P21802 22-821): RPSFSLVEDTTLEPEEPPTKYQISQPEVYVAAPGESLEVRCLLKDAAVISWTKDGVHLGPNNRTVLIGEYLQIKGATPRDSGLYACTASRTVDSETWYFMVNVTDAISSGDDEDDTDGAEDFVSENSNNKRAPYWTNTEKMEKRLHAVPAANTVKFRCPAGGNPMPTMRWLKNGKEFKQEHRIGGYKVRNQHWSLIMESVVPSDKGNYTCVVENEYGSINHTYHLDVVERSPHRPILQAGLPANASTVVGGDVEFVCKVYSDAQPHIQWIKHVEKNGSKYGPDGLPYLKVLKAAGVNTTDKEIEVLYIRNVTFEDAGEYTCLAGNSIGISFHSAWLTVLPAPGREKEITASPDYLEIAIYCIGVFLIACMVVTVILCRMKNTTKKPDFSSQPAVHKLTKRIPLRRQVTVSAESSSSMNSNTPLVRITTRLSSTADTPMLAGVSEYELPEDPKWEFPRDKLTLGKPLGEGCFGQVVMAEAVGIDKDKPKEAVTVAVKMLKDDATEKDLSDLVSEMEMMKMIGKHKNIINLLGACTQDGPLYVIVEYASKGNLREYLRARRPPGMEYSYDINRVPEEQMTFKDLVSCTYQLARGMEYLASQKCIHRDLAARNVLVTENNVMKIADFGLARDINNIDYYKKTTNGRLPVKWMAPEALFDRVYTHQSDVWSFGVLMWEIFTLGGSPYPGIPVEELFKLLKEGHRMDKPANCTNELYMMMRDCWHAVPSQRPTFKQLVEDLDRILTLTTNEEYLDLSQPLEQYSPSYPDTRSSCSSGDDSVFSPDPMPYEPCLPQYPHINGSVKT
pIC50: −log10 of the molar value.
outcomeMeasure: pIC50

smilesdata=CO[C@]1(C(=O)N[C@@H](C)c2ccc(-n3cc(F)cn3)nc2)CC[C@H](c2nc(C)cc(Nc3cc(C)[nH]n3)n2)CC1 outcomemeasure=pIC50 measuredvalue=7.57
smilesdata=COc1ccc(CN2C3CC2CN(c2ccc(-c4cc(OCC(C)(C)O)cn5ncc(C#N)c45)cn2)C3)cn1 outcomemeasure=pIC50 measuredvalue=7.80

---

- targetOrSystem: UniProt:P51955
- Sequence (P51955 whole entry): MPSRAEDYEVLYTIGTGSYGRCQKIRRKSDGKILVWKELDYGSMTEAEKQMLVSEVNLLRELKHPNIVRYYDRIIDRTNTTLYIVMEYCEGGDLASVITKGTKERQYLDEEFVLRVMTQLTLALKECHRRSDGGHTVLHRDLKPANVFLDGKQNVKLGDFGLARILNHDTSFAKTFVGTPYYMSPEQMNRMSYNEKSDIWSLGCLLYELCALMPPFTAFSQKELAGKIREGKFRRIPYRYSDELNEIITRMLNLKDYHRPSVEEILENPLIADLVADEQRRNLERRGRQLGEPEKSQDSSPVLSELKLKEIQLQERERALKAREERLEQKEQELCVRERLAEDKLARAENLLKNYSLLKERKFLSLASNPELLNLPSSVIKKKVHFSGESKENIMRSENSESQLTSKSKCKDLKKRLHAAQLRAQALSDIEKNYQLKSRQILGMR
- assayRemarks: Kinase panel profiling at 1 µmol/L (MSA or IMAP), percentage inhibition
- Format: biochemical
- conditionContext: NEK2; 1 µmol/L single concentration; read-out: %-inhibition, NEK2
outcomeMeasure: inhibition at 1 µM (%)

smilesdata=CCN1C(=O)N(c2c(F)c(OC)cc(OC)c2F)Cc2cnc3[nH]c(CN4CCOCC4)cc3c21 outcomemeasure="inhibition at 1 µM" unittext=% measuredvalue=-2
smilesdata=C=CC(=O)N1CCC([C@@H]2CCNc3c(C(N)=O)c(-c4ccc(Oc5ccccc5)cc4)nn32)CC1 outcomemeasure="inhibition at 1 µM" unittext=% measuredvalue=-0.59
smilesdata=CN1CCN(c2ccc(C(=O)Nc3n[nH]c4ccc(Cc5cc(F)cc(F)c5)cc34)c(NC3CCOCC3)c2)CC1 outcomemeasure="inhibition at 1 µM" unittext=% measuredvalue=11
smilesdata=C[C@H](Nc1ncnc2nc[nH]c12)c1cc2cccc(Cl)c2c(=O)n1-c1ccccc1 outcomemeasure="inhibition at 1 µM" unittext=% measuredvalue=9
smilesdata=Cn1cc(-c2cc3c(N4CCN(c5ncc([C@@](C)(N)c6ccc(F)cc6)cn5)CC4)ncnn3c2)cn1 outcomemeasure="inhibition at 1 µM" unittext=% measuredvalue=9
smilesdata=Cn1cnc2c(F)c(Nc3ccc(Br)cc3F)c(C(=O)NOCCO)cc21 outcomemeasure="inhibition at 1 µM" unittext=% measuredvalue=0.117
smilesdata=COc1cc2ncnc(Nc3ccc(F)c(Cl)c3)c2cc1NC(=O)/C=C/CN1CCCCC1 outcomemeasure="inhibition at 1 µM" unittext=% measuredvalue=-2.41
smilesdata=Cn1cnc2c(F)c(Nc3ccc(Br)cc3Cl)c(C(=O)NOCCO)cc21 outcomemeasure="inhibition at 1 µM" unittext=% measuredvalue=9
smilesdata=CCc1nc(C(N)=O)c(Nc2ccc(N3CCC(N4CCN(C)CC4)CC3)c(OC)c2)nc1NC1CCOCC1 outcomemeasure="inhibition at 1 µM" unittext=% measuredvalue=38
smilesdata=Cc1cc(Nc2ncnc3ccc(NC4=NC(C)(C)CO4)cc23)ccc1Oc1ccn2ncnc2c1 outcomemeasure="inhibition at 1 µM" unittext=% measuredvalue=2.8
smilesdata=CCn1c(=O)c(-c2cc(NC(=O)Nc3ccccc3)c(F)cc2Br)cc2cnc(NC)cc21 outcomemeasure="inhibition at 1 µM" unittext=% measuredvalue=-0.18
smilesdata=COC(=O)N[C@@H](C)CNc1nccc(-c2cn(C(C)C)nc2-c2cc(Cl)cc(NS(C)(=O)=O)c2F)n1 outcomemeasure="inhibition at 1 µM" unittext=% measuredvalue=2.77

---

- targetOrSystem: panel of 255 wild-type kinases (Homo sapiens)
- assayRemarks: Kinase panel profiling at 1 µmol/L (MSA or IMAP), percentage inhibition
- Assay type: biochemical
- conditionContext: kinase TXK; 1 µmol/L single concentration; read-out: %-inhibition at 1 µmol/L, TXK
In this section, each of the molecules is paired with its reported inhibition at 1 µM.
outcomeMeasure: inhibition at 1 µM (%)

molecule="COc1ccc(CN2C3CC2CN(c2ccc(-c4cc(OCC(C)(C)O)cn5ncc(C#N)c45)cn2)C3)cn1 [selpercatinib]" unittext=% measuredvalue=54
molecule="CO[C@]1(C(=O)N[C@@H](C)c2ccc(-n3cc(F)cn3)nc2)CC[C@H](c2nc(C)cc(Nc3cc(C)[nH]n3)n2)CC1 [pralsetinib]" unittext=% measuredvalue=41
molecule="CCc1nc(C(N)=O)c(Nc2ccc(N3CCC(N4CCN(C)CC4)CC3)c(OC)c2)nc1NC1CCOCC1 [gilteritinib]" unittext=% measuredvalue=79
molecule="Cn1cc(-c2cc3c(N4CCN(c5ncc([C@@](C)(N)c6ccc(F)cc6)cn5)CC4)ncnn3c2)cn1 [avapritinib]" unittext=% measuredvalue=20
molecule="O=C(Nc1cnn2ccc(N3CCC[C@@H]3c3cc(F)ccc3F)nc12)N1CC[C@H](O)C1 [larotrectinib]" unittext=% measuredvalue=16
molecule="CCN1CCN(c2ccc(Nc3cc(N(C)C(=O)Nc4c(Cl)c(OC)cc(OC)c4Cl)ncn3)cc2)CC1 [infigratinib]" unittext=% measuredvalue=4.32
molecule="Cn1cnc2c(F)c(Nc3ccc(Br)cc3F)c(C(=O)NOCCO)cc21 [binimetinib]" unittext=% measuredvalue=-3

---

- targetOrSystem: panel of 255 wild-type kinases (Homo sapiens, UniProt Q8TF76)
- Sequence (Q8TF76 1-798): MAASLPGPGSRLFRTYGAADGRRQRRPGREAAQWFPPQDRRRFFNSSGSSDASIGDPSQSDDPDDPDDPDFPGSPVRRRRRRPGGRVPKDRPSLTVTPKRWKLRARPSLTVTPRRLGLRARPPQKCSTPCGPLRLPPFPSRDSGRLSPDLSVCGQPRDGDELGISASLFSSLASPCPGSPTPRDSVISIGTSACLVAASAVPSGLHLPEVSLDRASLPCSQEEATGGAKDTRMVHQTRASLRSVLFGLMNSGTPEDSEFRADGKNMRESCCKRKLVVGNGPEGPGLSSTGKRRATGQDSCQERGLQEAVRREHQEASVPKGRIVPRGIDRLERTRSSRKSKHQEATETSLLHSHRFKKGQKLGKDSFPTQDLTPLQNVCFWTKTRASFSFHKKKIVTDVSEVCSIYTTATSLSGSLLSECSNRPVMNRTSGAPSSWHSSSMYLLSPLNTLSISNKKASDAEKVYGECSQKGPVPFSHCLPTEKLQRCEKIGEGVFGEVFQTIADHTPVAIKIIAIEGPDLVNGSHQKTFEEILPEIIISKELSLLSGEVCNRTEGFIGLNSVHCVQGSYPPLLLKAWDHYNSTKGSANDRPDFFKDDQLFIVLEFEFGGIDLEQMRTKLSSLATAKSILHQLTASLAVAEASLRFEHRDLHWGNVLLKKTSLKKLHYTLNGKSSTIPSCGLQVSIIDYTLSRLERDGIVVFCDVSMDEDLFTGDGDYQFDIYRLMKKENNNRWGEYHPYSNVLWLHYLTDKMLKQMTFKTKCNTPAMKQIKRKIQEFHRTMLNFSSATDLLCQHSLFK
- assayRemarks: Kinase panel profiling at 1 µmol/L (MSA or IMAP), percentage inhibition
- Format: biochemical
- conditionContext: kinase Haspin; 1 µmol/L single concentration; read-out: %-inhibition at 1 µmol/L, Haspin
outcomeMeasure: inhibition at 1 µM

smilesdata=CCn1c(=O)c(-c2cc(NC(=O)Nc3ccccc3)c(F)cc2Br)cc2cnc(NC)cc21 targetorsystem="panel of 255 wild-type kinases (Homo sapiens, UniProt Q8TF76)" measuredvalue=1.87%
smilesdata=Cn1cc(-c2cc3c(N4CCN(c5ncc([C@@](C)(N)c6ccc(F)cc6)cn5)CC4)ncnn3c2)cn1 targetorsystem="panel of 255 wild-type kinases (Homo sapiens, UniProt Q8TF76)" measuredvalue=59%
smilesdata=CCN1CCN(c2ccc(Nc3cc(N(C)C(=O)Nc4c(Cl)c(OC)cc(OC)c4Cl)ncn3)cc2)CC1 targetorsystem="panel of 255 wild-type kinases (Homo sapiens, UniProt Q8TF76)" measuredvalue=-1.4%
smilesdata=CN1CCN(c2ccc(C(=O)Nc3n[nH]c4ccc(Cc5cc(F)cc(F)c5)cc34)c(NC3CCOCC3)c2)CC1 targetorsystem="panel of 255 wild-type kinases (Homo sapiens, UniProt Q8TF76)" measuredvalue=-2.24%

Attribution: paper PMC9516332
